Catalogue of competition (percent) values
- TARGET_OF_ASSAY: T1, Biotinylated CD96 antigen (human, UniProt P40200-2 22-503, limits assumed, biotinylated)
- T1 sequence (looked up): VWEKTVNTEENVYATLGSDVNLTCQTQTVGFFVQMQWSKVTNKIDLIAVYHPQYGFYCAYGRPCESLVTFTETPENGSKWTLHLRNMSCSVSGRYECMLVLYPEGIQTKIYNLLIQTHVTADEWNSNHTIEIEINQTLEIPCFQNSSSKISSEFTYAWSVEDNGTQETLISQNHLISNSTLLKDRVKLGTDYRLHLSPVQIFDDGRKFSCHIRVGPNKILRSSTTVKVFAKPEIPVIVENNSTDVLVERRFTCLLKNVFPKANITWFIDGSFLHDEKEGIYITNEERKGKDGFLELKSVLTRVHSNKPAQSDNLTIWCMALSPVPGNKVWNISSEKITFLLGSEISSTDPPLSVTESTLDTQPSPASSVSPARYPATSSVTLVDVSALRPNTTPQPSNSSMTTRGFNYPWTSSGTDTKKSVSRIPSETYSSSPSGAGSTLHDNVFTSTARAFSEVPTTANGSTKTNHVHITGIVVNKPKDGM
- ASSAY_REMARKS: competition ELISA, antibody B premixed with biotinylated CD96; competitor (coated antibody A): ch1720
Field format: number, assumed %, no unit text.

competition (percent) measured on h1722-010 (antibody, V domains shown, Only variable regions are tied to this name; also called M722-010) VH: EVQLVQSGAEVKKPGSSVKVSCKASGGTFSDYWMHWVRQAPGQGLEWIGMLHPNSGTTSFNEKFKIRVTITADKSTSTAYMELSSLRSEDTAVYYCASDYSGPFAYWGQGTLVTVSS VL: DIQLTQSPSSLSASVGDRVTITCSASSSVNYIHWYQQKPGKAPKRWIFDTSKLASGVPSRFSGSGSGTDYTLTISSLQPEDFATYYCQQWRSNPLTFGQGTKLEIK = -11.5

More entries:
competition (percent) measured on h1719-014 (antibody, V domains shown, Only variable regions are tied to this name; also called M719-014) VH: EVTLKESGPVLVKPTETLTLTCTVSGFSLSSYGVSWVRQPPGKGLEWLGVIWGDGNTNYHSVLISRLTISKDTSKSQVVLTLTNMDPVDTATYYCAKNYYYGSRYGYPLDYWGQGTTVTVSS VL: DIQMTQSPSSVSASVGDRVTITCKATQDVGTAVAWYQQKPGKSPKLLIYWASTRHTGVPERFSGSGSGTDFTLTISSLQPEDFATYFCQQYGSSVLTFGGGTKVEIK = 67.7
